Catalogue of TGI values
Tested on: SF-295 CNS
Test: NCI tumour cell line growth inhibition, 48 h
readout: TGI

molecule	test result
CC1=Nc2c(ccc3c2C(=O)c2ccccc2C3=O)NC(c2cccc3c2CCC3)C1 (stereo unspecified)	> 100 µM
COC12CCC(=O)C=C1c1ccccc1N2C(C)=O (stereo unspecified)	> 100 µM
COc1ccc2cc(/C=C/C(=O)c3ccc(Cl)cc3Cl)ccc2c1	> 100 µM
O=C(O)c1ccc(CI)cc1	21.6 µM
COc1cccc(/C(C#N)=C/c2nc3c(N4CCOCC4)nc(Cl)nc3n2C)c1	7.88 µM
O=C(Nc1cc(C(F)(F)F)ccc1Cl)c1ccc(NC2=C(Cl)C(=O)N(Cc3ccccc3)C2=O)cc1	> 100 µM
Cc1ccc(S(=O)(=O)OC2C(O)C(O)OC2C(c2cc(O)c3c(c2O)C(=O)c2ccccc2C3=O)c2cc(O)c3c(c2O)C(=O)c2ccccc2C3=O)cc1 (stereo unspecified)	9.33 µM
NS(=O)(=O)c1ccc(-n2nc3c(c2-c2ccc(Cl)cc2)Cc2ccccc2-3)cc1	82.3 µM
CC(=O)Nc1ccc(C(=O)NN2C(=O)C(Cl)/C2=C/c2ccco2)cc1 (stereo unspecified)	> 100 µM
O=CNNC(=O)Nc1cccc2ccccc12	> 100 µM
CCC[CH2][Sn]([Cl])([Cl])[CH2]CCC	2.92 µM
COc1ccc2c(=O)cc(-c3ccccc3)[nH]c2c1	1.84 µM
CC[n+]1oc(C(=O)c2ccc(Cl)cc2)c(-c2ccccc2)c1-c1ccccc1.[Cl][Fe]([Cl])([Cl])[Cl]	> 100 µM
CC1/C=C/[C@@]2(C)CCC(C(C)(C)O)C2C(O)C[C@](C)(O)/C=C/C1 (stereo partly specified)	> 100 µM
CC[C@@]1(O)C(=O)OCc2c1cc1n(c2=O)Cc2c-1nc1ccccc1c2/C=N\NC(=O)C1CCCN1 (stereo partly specified)	18.6 µM
CN(C(=O)C12C3C4C5C3C1(C(=O)C13C6C7C8C6C1C8C73)C5C42)C(C)(C)C (stereo unspecified)	> 50 µM
CCOc1ccc2[nH]c3c(C)c4ccncc4c(C)c3c2c1	2.19 µM
CCOC(=O)c1cc2cc3c4c(c2oc1=O)CCCN4CCC3	> 100 µM
O=C1c2cc(Cl)ccc2NC(=NC2CCCC2)C2CSCN12 (stereo unspecified)	> 100 µM
O=S(=O)(O)c1cc(N=Nc2c(O)ccc3ccccc23)ccc1/C=C/c1ccc(N=Nc2c(O)ccc3ccccc23)cc1S(=O)(=O)O	> 100 µM
CSc1ccc(-c2cc(-c3nc4ccccc4[nH]3)no2)cc1	> 100 µM
